Values from BindingDB's records for doi:10.1016/j.bioorg.2017.03.014

Recorded below: pIC50, system UniProtKB P00921.
Sequence (P00921 whole entry): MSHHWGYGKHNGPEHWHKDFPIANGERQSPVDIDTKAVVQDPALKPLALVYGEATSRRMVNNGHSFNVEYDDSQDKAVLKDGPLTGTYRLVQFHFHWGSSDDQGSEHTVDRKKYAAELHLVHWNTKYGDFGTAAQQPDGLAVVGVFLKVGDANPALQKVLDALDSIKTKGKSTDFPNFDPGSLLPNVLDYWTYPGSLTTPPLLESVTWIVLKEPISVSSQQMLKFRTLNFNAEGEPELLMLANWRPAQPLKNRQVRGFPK
pIC50: −log10 of the molar value.
MEASURED_ENDPOINT: pIC50

Solved entries:
| SMILES_CODE | pIC50 |
| --- | --- |
| O=C(N/N=C/c1ccccc1Cl)N/N=C/c1ccccc1Cl | 5.63 |
| O=C(N/N=C/c1ccc(Br)cc1)N/N=C/c1ccc(Br)cc1 | 5.63 |
| O=C(N/N=C/c1ccccc1[N+](=O)[O-])N/N=C/c1ccccc1[N+](=O)[O-] | 5.73 |
| O=C(N/N=C/c1ccc([N+](=O)[O-])cc1)N/N=C/c1ccc([N+](=O)[O-])cc1 | 5.88 |

A: O=C(N/N=C/c1c(Cl)cccc1Cl)N/N=C/c1c(Cl)cccc1Cl
B: O=C(N/N=C/c1ccccc1Br)N/N=C/c1ccccc1Br
Return label of the item with the larger pIC50. Candidates: A , B . I would appreciate it if you answered with the label of your choice. A
(A: 5.84, B: 5.40)
